Data provenance: the MegaScale stability set (Tsuboyama et al. 2023)

B1: EHEE_rd4_0086 (parent)
chain: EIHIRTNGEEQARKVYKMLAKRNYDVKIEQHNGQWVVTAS

- Variants of: B1
- ASSAY REMARKS: folding stability dG (cDNA display proteolysis); higher = more stable
- STATED CONDITIONS: PBS, room temperature
folding stability dG listing for selected variants.
# number only, unit kJ/mol dropped from output

S40I = 8.58
A39R = 4.02
E10H = 6.61

Next variant, please.
In plain terms, `Y24W` has a documented folding stability dG of 8.39
